All values here come from patent US20210292330A1.

Recorded CAF (10 minutes/60 minutes) at 10 micromolar: 60 minutes, one value per entry.
Molecular target: KRAS 4B G12C protein (Homo sapiens, UniProt P01116, G12C)
Construct: This protein contained 188 amino acids in total, including an N-terminal 6-Histidine tag; made in house; host or cells: E. coli BL21
Assay: In vitro covalent adduct formation (CAF) assay by LC-MS
Assay type: binding
Details: 60 minutes; compound 10 μM, protein 5 μM, 22° C.; percentage of protein bound by the compound
Metric: CAF (10 minutes/60 minutes) at 10 micromolar: 60 minutes (%)

{"Molecule": "C=CC(=O)N1CCN(c2nc(OC[C@@H]3CCCN3C)nc3c2CN(Cc2c(Cl)ccc(O)c2Cl)C3)C[C@@H]1CC#N [1-321]", "Experimental System": "KRAS 4B G12C protein (Homo sapiens, UniProt P01116, G12C)", "Measured Result": 90}
{"Molecule": "C=CC(=O)N1C2COCC1CN(c1nc(OC[C@@H]3CCCN3C)nc3c1CN(Cc1cc(O)ccc1Cl)C3)C2 [1-124]", "Experimental System": "KRAS 4B G12C protein (Homo sapiens, UniProt P01116, G12C)", "Measured Result": 67}
{"Molecule": "C=CC(=O)N1CCN(c2nc(OCCCN3CCOCC3)nc3c2CN(C2CCc4ccccc42)C3)C[C@@H]1CC#N (stereo partly drawn) [1-131]", "Experimental System": "KRAS 4B G12C protein (Homo sapiens, UniProt P01116, G12C)", "Measured Result": 97}
{"Molecule": "C=CC(=O)N1CCN(c2nc(OC[C@@H]3CCCN3C3CC3)nc3c2CN(C2CCc4ccccc42)C3)C[C@@H]1CC#N (stereo partly drawn) [1-198]", "Experimental System": "KRAS 4B G12C protein (Homo sapiens, UniProt P01116, G12C)", "Measured Result": 18}
{"Molecule": "C=CC(=O)N1C[C@H](C)N(c2nc(OC[C@@H]3CCCN3C)nc3c2CN(Cc2c(C)ccc(O)c2C)C3)C[C@H]1C [1-21]", "Experimental System": "KRAS 4B G12C protein (Homo sapiens, UniProt P01116, G12C)", "Measured Result": 63}
{"Molecule": "C=CC(=O)N1CCN(c2nc(OC[C@@H]3CCCN3C)nc3c2CN(Cc2ccccc2C(F)(F)F)C3)C[C@@H]1CC#N [1-213]", "Experimental System": "KRAS 4B G12C protein (Homo sapiens, UniProt P01116, G12C)", "Measured Result": 95}
{"Molecule": "C=CC(=O)N1CCN(c2nc(OC[C@@H]3CCCN3Cc3ccccc3)nc3c2CN(C2CCc4ccccc42)C3)C[C@@H]1CC#N (stereo partly drawn) [1-199]", "Experimental System": "KRAS 4B G12C protein (Homo sapiens, UniProt P01116, G12C)", "Measured Result": 74}
{"Molecule": "C=C(F)C(=O)N1CCN(c2nc(OC[C@@H]3CCCN3C)nc3c2CN(Cc2cc(O)c(C)cc2Cl)C3)C[C@@H]1CC#N [1-329]", "Experimental System": "KRAS 4B G12C protein (Homo sapiens, UniProt P01116, G12C)", "Measured Result": 22}
{"Molecule": "C=C(F)C(=O)N1CCN(c2nc(OC[C@@H]3CCCN3C)nc3c2CN(Cc2nc(N)ccc2Cl)C3)C[C@@H]1CC#N [1-339]", "Experimental System": "KRAS 4B G12C protein (Homo sapiens, UniProt P01116, G12C)", "Measured Result": 92}
{"Molecule": "C=CC(=O)N1CCN(c2nc(OC[C@@H]3CCCN3C)nc3c2CN(Cc2cccc4nc[nH]c24)C3)C[C@@H]1CC#N [1-201]", "Experimental System": "KRAS 4B G12C protein (Homo sapiens, UniProt P01116, G12C)", "Measured Result": 94}

----------
Target: KRAS 4B G12C protein (Homo sapiens, UniProt P01116, G12C)
Construct: This protein contained 188 amino acids in total, including an N-terminal 6-Histidine tag; made in house; host or cells: E. coli BL21
Assay: In vitro covalent adduct formation (CAF) assay by LC-MS
Assay type: binding
Settings: 10 minutes; compound 10 μM, protein 5 μM, 22° C.; percentage of protein bound by the compound
Recorded CAF (10 minutes/60 minutes) at 10 micromolar: 10 minutes, one value per entry.
Metric: CAF (10 minutes/60 minutes) at 10 micromolar: 10 minutes

{"Molecule": "C=CC(=O)N1CCN(c2nc(OC[C@@H]3CCCN3C)nc3c2CN(Cc2c(Cl)cccc2OC(F)F)C3)CC1", "Measured Result": "0%/ 0%"}
{"Molecule": "C=CC(=O)N1CCN(c2nc(OC)nc3c2CN(Cc2cc(F)ccc2Cl)C3)C[C@@H]1CC#N", "Measured Result": "0%"}
{"Molecule": "C=CC(=O)N1CCN(c2nc(OC[C@@H]3CCCN3C)nc3c2CN(Cc2cc(Cl)ccc2Cl)C3)C[C@@H]1CC#N", "Measured Result": "94%"}
{"Molecule": "C=CC(=O)N1CCN(c2nc(OC[C@@H]3CCCN3C)nc3c2CN(C2CCc4ccccc42)C3)C[C@@H]1CCO (stereo partly shown)", "Measured Result": "0%"}
{"Molecule": "C=CC(=O)N1CCN(c2nc(OC[C@@H]3CCCN3C)nc3c2CN(S(=O)(=O)c2ccccc2C)C3)C[C@@H]1CC#N", "Measured Result": "27%"}
{"Molecule": "C=C(F)C(=O)N1CCN(c2nc(OC[C@@H]3CCCN3C)nc3c2CN(Cc2cc(O)c(Cl)cc2C)C3)C[C@@H]1CC#N", "Measured Result": "0%"}
{"Molecule": "C=C(F)C(=O)N1CCN(c2nc(OC[C@@H]3CCCN3C)nc3c2CN(Cc2cc(O)c(C)cc2Cl)C3)C[C@@H]1CC#N", "Measured Result": "2%"}

----------
Target: KRAS 4B G12C protein (Homo sapiens, UniProt P01116, G12C)
Construct: This protein contained 188 amino acids in total, including an N-terminal 6-Histidine tag; made in house; host or cells: E. coli BL21
Assay: In vitro covalent adduct formation (CAF) assay by LC-MS
Type: binding
Conditions: 60 minutes; compound 10 μM, protein 5 μM, 22° C.; percentage of protein bound by the compound
I would appreciate it if you labelled entries class 1 when CAF (10 minutes/60 minutes) at 10 micromolar: 60 minutes is 7% or higher, otherwise class 0.

{"Compound": "C=C(F)C(=O)N1CCN(c2nc(OC[C@@H]3CCCN3C)nc3c2CN(C2CCc4ccccc42)C3)C[C@@H]1CC#N (stereo partly drawn) [1-138]", "Label": "class 1"}
{"Compound": "C=CC(=O)N1CCN(c2nc(Oc3cccc4c3CN(C)C4)nc3c2CN(C2CCc4ccccc42)C3)C[C@@H]1CC#N (stereo partly drawn)", "Label": "class 1"}
{"Compound": "C=C(F)C(=O)N1CCN(c2nc(OC[C@@H]3CCCN3C)nc3c2CN(C2CCc4ccc(Cl)c(Cl)c42)C3)C[C@@H]1CC#N (stereo partly drawn)", "Label": "class 1"}
{"Compound": "C=C(F)C(=O)N1CCN(c2nc(OC[C@@H]3CCCN3C)nc3c2CN(Cc2cc(O)c(Cl)cc2C)C3)C[C@@H]1CC#N", "Label": "class 0"}
{"Compound": "C=CC(=O)N1CCN(c2nc(CC[C@@H]3CCCN3C)nc3c2CN(C2CCc4ccccc42)C3)C[C@@H]1CC#N (stereo partly drawn)", "Label": "class 1"}
{"Compound": "C=CC(=O)N1CCN(c2nc(OC[C@@H]3CCCN3C)nc3c2CN(Cc2cc(OC)ccc2Cl)C3)C[C@@H]1CC#N", "Label": "class 1"}
{"Compound": "C=CC(=O)N1CCN(c2nc(OCC3CCCC3)nc3c2CN(Cc2c(O)cccc2F)C3)C[C@@H]1CC#N", "Label": "class 1"}
{"Compound": "C=CC(=O)N1CCN(c2nc(OCCN3CCOCC3)nc3c2CN(Cc2cc(O)ccc2C)C3)[C@@H](C)C1", "Label": "class 0"}
{"Compound": "C=CC(=O)N1CCN(c2nc(OC[C@@H]3CCCN3C)nc3c2CN(Cc2cc(Cl)ccc2F)C3)[C@@H](C)C1", "Label": "class 0"}
{"Compound": "C=CC(=O)N1CCN(c2nc(OC[C@@H]3CCCN3C)nc3c2CN(c2cccc4cccc(C)c24)C3)[C@@H](C)C1", "Label": "class 0"}
{"Compound": "C=C(F)C(=O)N1CCN(c2nc(OC[C@@H]3CCCN3C)nc3c2CN(Cc2cc(N)ncc2Cl)C3)C[C@@H]1CC#N", "Label": "class 1"}
{"Compound": "C=CC(=O)N1CCN(c2nc(OC[C@@H]3CCCN3C)nc3c2CN(Cc2ccccc2)C3)C[C@@H]1CC#N", "Label": "class 1"}

----------
Biological target: KRAS 4B G12C protein (Homo sapiens, UniProt P01116, G12C)
Construct: This protein contained 188 amino acids in total, including an N-terminal 6-Histidine tag; made in house; host or cells: E. coli BL21
Assay: In vitro covalent adduct formation (CAF) assay by LC-MS
Format: binding
Details: 10 minutes; compound 10 μM, protein 5 μM, 22° C.; percentage of protein bound by the compound
Metric: CAF (10 minutes/60 minutes) at 10 micromolar: 10 minutes

{"Compound": "C=CC(=O)N1CCN(c2nc(O[C@@H]3CN(C)C[C@H]3OC)nc3c2CN(C2CCc4ccccc42)C3)C[C@@H]1CC#N (stereo partly shown) [1-170]", "Measured Result": "31%"}
{"Compound": "C=CC(=O)N1CCN(c2nc(OC[C@@H]3CCCN3C)nc3c2CN(Cc2cc(O)ccc2Cl)C3)CC1 [1-165]", "Measured Result": "88%"}
{"Compound": "C=C(F)C(=O)N1CCN(c2nc(OC[C@@H]3CCCN3C)nc3c2CN(Cc2n[nH]cc2C)C3)C[C@@H]1CC#N [1-344]", "Measured Result": "0%"}
{"Compound": "C=CC(=O)N1CCN(c2nc(OC[C@@H]3CCCN3C)nc3c2CN(C2CCc4ccccc42)C3)[C@@H](C(N)=O)C1 (stereo partly shown) [1-193]", "Measured Result": "7%"}
